- Tested on: SK-MEL-5 melanoma
- Assay: NCI tumour cell line growth inhibition, 48 h
Endpoint: TGI (µM)
Form entry: value (µM) — number only.

Retrieve TGI on SK-MEL-5 melanoma; query CC(C)Oc1cccc(N2C(n3ccnc3)=Nc3ccncc3S2(=O)=O)c1
26.3

With SK-MEL-5 melanoma as the test system, provide measured TGI for this compound: COC(=O)/C=C(/C=C1/C(C#N)=C(N)N(c2ccc(Cl)cc2)C1(C)/C(=C\C(=O)OC)C(=O)OC)C(=O)OC (stereo not drawn)
29.4

Write down the reported TGI (system: SK-MEL-5 melanoma) of O=C(NCCNCCO)c1ccc2c(c1)oc1cc3ccccc3c(=O)n12
32.1

Provide TGI, system SK-MEL-5 melanoma, entry CN1CSC(=S)N(c2cccc(C(F)(F)F)c2)C1
31.4

Fill in: TGI on SK-MEL-5 melanoma, entry CN(C)CCNC(=O)c1cccc2c1Nc1ccccc1S2
26.3

Fill in TGI for CN(C)CCn1c(=O)c2ccc(NCCCN(C)CCCNc3ccc4c(=O)n(CCN(C)C)c(=O)n5c6ccc(O)cc6c(=O)c3c45)c3c(=O)c4cc(O)ccc4n(c1=O)c23 tested with SK-MEL-5 melanoma.
0.171

Report value only: TGI, SK-MEL-5 melanoma, CCc1ccccc1NC(=O)c1cccc([N+](=O)[O-])c1O
33.9

Supply TGI measured with SK-MEL-5 melanoma for CN[C@@H](C)C(=O)N[C@H]1CN(S(=O)(=O)c2cccc(S(=O)(=O)N3CC[C@H]4CC[C@@H](C(=O)NC(c5ccccc5)c5ccccc5)N4C(=O)[C@@H](NC(=O)[C@H](C)NC)C3)c2)CC[C@H]2CC[C@@H](C(=O)NC(c3ccccc3)c3ccccc3)N2C1=O .
34.3

Using SK-MEL-5 melanoma as the test system, report measured TGI of C[C@]12CC[C@H]3[C@@H](CCC4=CC(=O)CC[C@@]43C)[C@@H]1CC[C@@H]2c1csc(N)n1 .
5.41

Would you please give the reported TGI of CNCc1cccc2c1OCCOCCOCCN(C)S(=O)(=O)c1ccc(cc1)-c1cnc(N)c(n1)C(=O)N2 with SK-MEL-5 melanoma?
2.91

====

Provide the reported TGI of each item.
- System: NCI-H460 lung
- Assay: NCI tumour cell line growth inhibition, 48 h

Fill in TGI for record O=C1NC(=N[C@@H](CO)c2ccccc2)S/C1=C\c1ccc2ncccc2c1
> 25 µM

In one line, give reported TGI of the entry COC(=O)/C=C(/C(=O)OC)C1(C)c2cc(C(=O)OC)c(C(=O)OC)c(N)c2C(=N)N1c1ccccc1 (stereo not given) .
> 100 µM

State, in one line, measured TGI of c1ccc(C2=NC3OC2c2ccccc23)cc1 (stereo not given)
> 10 µM

Note down TGI recorded for O=C1C=C[C@H](O)[C@@]2(CO)O[C@@H]12
> 66.1 µM

Respond only with TGI recorded for Cc1c2cccc-2c2cc(O)c3ccccc3c2n1-c1ccc(N(C)C)cc1
59 µM

====

- Tested on: MCF7 breast
- Assay: NCI tumour cell line growth inhibition, 48 h
Endpoint: TGI

Report measured TGI; entry is O=C(c1ccco1)N(C(=O)N1CCCCC1)c1ccccc1
> 100 µM

Answer with reported TGI of S=C(Cc1ccc2c(c1)Sc1ccccc1O2)N1CCOCC1
> 100 µM

Note down TGI recorded for CN(C)C(=O)C(F)(F)C(c1ccc(F)cc1)C1C(=O)N(C)C(=O)N(C)C1=O (stereo not given)
> 100 µM

# return recorded TGI for input COc1ccc(C)cc1N1C(=O)C2ON(Cc3ccc(CC(N)=O)cc3)C(c3c4ccccc4c(Cl)c4ccccc34)C2C1=O (stereo not given)
> 100 µM

Indicate the recorded TGI value for this compound: CC(C)NC(=O)OCc1c(COC(=O)NC(C)C)n(C)c2c1ccc1sccc12
> 55.5 µM

====

- Test system: SK-MEL-28 melanoma
- Assay: NCI tumour cell line growth inhibition, 48 h
Endpoint: TGI

Supply TGI value. Item: c1ccc(-c2[nH]ncc2-c2ccnc(-c3ccc(OCCn4ccnc4)cc3)c2)nc1
> 25 µM

Please indicate TGI recorded for Cc1ccc2c(c1C)C(=O)C1(Cc3cc4c(cc3C1=O)CCC4)C2 (stereo unspecified)
> 100 µM

Provide TGI value for the following molecule: O=C(NC12CC3CCC1CC(C3)C2)[C@@H]1CCCN1C(=O)OCc1ccccc1 (stereo partly specified)
> 100 µM

Provide TGI value for the following molecule: C[n+]1cc2cc(O)c(O)cc2c2ccc3cc(O)c(O)cc3c21
> 100 µM

For the molecule CC(=O)c1ccc(Oc2c3ccccc3nc3ccccc23)cc1 , give its reported TGI.
28.5 µM

Provide only the value of recorded TGI for Cc1ccc2c(c1)CN1c3ccc(C)cc3CN2C1c1ccccc1O
> 100 µM

====

- Tested on: 786-0 renal
- Assay: NCI tumour cell line growth inhibition, 48 h
Parameter threshold = 20 µM. Response is met when TGI meets or exceeds it, else not met.

Quick check: does O=C(OCc1ccc2c(Br)cc(Br)c(O)c2n1)c1cc2ccccc2[nH]1 have TGI greater than or equal to 20 µM?
not met

Determine whether measured TGI meets or exceeds 20 µM for COc1ccc(CNc2cnc3ccc(N)cc3n2)cc1
met

Hello, I need to know if O=C(/C=C/C12c3ccccc3C(c3ccccc31)C1C(=O)NC(=O)C12)c1ccccn1 (stereo not given) has measured TGI not below 20 µM. Thanks!
not met

Has O=C(/C=C/c1ccc(O)c(O)c1)OCCc1ccc2ccccc2c1 a recorded TGI greater than or equal to 20 µM?
met

Textbook exercise: given the entry O=[N+]([O-])c1cccc(C2=NN(c3ccccc3)C3c4cc(Br)ccc4OCC23)c1 (stereo not given) , state whether its TGI is greater than or equal to 20 µM.
met

Determine whether this molecule has TGI no lower than 20 µM: COc1ccc2c(c1)c1c(n2CCN2CCCCC2)-c2cccc(OC)c2CC1
met

Check the entry COC(=O)CCC(NC(=S)N/N=C/c1cccs1)C(=O)OC (stereo not given) : does TGI equal or exceed 20 µM?
met

For this molecule, is measured TGI 20 µM or higher? COC(=O)/C=C(/C=C1/C(C#N)=C(N)N(c2ccc(Cl)cc2)C1(C)/C(=C\C(=O)OC)C(=O)OC)C(=O)OC (stereo not given)
met

Can O=c1oc2ccc3ccccc3c2cc1-c1cn2ccsc2n1 be said to have TGI at or above 20 µM?
met

Reported TGI reaches at least 20 µM for CN(C)C(=O)C(F)(F)C(c1ccc(F)cc1)C1C(=O)N(C)C(=O)N(C)C1=O (stereo not given) ?
met

====

- Tested on: MOLT-4 leukemia
- Assay: NCI tumour cell line growth inhibition, 48 h
Endpoint: TGI

Read the entry CN(C)c1nc(Oc2nc(N(C)C)nc(N(C)C)n2)nc(N(C)C)n1 and write its reported TGI.
> 100 µM

Please indicate TGI recorded for Cn1c2ccccc2n2c3ncccc3c(=O)c(C#N)c12
> 100 µM

Recall and state the measured TGI for COc1cc2c(N3CCN(C(=O)Nc4ccc(OC(C)C)cc4)CC3)ncnc2cc1OCCCN1CCCCC1 .
61.2 µM

State, in one line, measured TGI of COc1nc2c(c(O)c(C)c(=O)n2OC2OCC(OC(C)=O)C(OC(C)=O)C2OC(C)=O)c(=O)n1C (centres undefined)
> 100 µM

Name the recorded TGI of the compound listed here: CCn1c2c(c3ccccc3c1=O)C(=O)c1ccccc1-2
> 100 µM

Let me know recorded TGI for O=C1/C(=C/c2ccc(Cl)c(Cl)c2)CN(C(=O)CCN2CCC(=NO)CC2)C/C1=C\c1ccc(Cl)c(Cl)c1 , thanks.
2.26 µM

Identify the reported TGI for the following entry. COc1cc2oc(-c3ccc(O)cc3)cc(=O)c2c(O)c1C1OC(CO)C(O)C(O)C1O (centres undefined)
> 100 µM

Indicate its recorded TGI; the compound in question is N#Cc1nc2c(S(=O)(=O)c3ccc(Cl)cc3)c(N)n(Nc3cccc(Cl)c3)c2nc1C#N
0.103 µM

Return the recorded TGI value; entry: N#C/C(=C\c1cc(OCc2ccccc2)c(OCc2ccccc2)cn1)C(N)=O
52.4 µM

====

- Test system: OVCAR-4 ovarian
- Assay: NCI tumour cell line growth inhibition, 48 h
Endpoint: TGI

Quote TGI reported for COc1cc2c(N3CCN(C(=O)Nc4ccc(OC(C)C)cc4)CC3)ncnc2cc1OCCCN1CCCCC1 please.
53.9 µM

Give me measured TGI, please, for this molecule: CC1(C)CC(=O)C2=C(C1)C(c1ccccc1Cl)C1C(=O)CC(C)(C)CC1(O)O2 (stereo not drawn)
> 100 µM

Check the records and state TGI for CCOC(=O)c1csc(NC(=O)C(C)N2CCCC2)n1 (stereo not drawn)
> 100 µM

Provide measured TGI value, entry: Cn1c2ccccc2n2c3ncccc3c(=O)c(C#N)c12
> 100 µM

Note TGI for the molecule shown: Cn1nc(-c2ccc(S(=O)(=O)/N=C(\NN)Nc3ccc(Cl)cc3)s2)cc1C(F)(F)F
29.9 µM

Give TGI for the following molecule: CC(=O)c1ccc(Oc2c3ccccc3nc3ccccc23)cc1
18.6 µM

Please indicate TGI recorded for O=C(ON=C1c2ccccc2C(Br)C(Br)c2ccccc21)c1ccccc1 (stereo not drawn)
30 µM

Give reported TGI value for Cc1cccc(NC(=O)c2sc3nc4c(cc3c2N)C(=O)CCC4)c1
32.5 µM

Look up TGI of COc1cc([C@@H]2c3cc4c(cc3[C@@H](NC(=O)c3ccc(C#N)cc3)C3COC(=O)[C@@H]32)OCO4)cc(OC)c1O (stereo partly drawn) and report it.
> 100 µM

Provide one value: measured TGI of Cc1c(N2CCOCC2)nc2ccc(Cl)cc2c1-c1ccccc1
> 100 µM

Tell me TGI reported for CC(=O)Nc1nc(Cl)cc(NCC2(CO)CCC2)n1
> 100 µM

Indicate the recorded TGI value for this molecule: CC(=O)ON1CCCC(P(=O)(OCOC(=O)C(C)(C)C)OCOC(=O)C(C)(C)C)C1=O (stereo not drawn)
13.5 µM

Using known records, supply TGI for Cc1ccc(-c2cc(-c3ccco3)c(C#N)c(=S)[nH]2)cc1
> 100 µM

Supply reported TGI belonging to this molecule: COc1ccc2sc3c(NCCCN)nc4ccccc4c3c(=O)c2c1
3.56 µM

Read the entry O=C(COc1ccc(OCC(=O)N/N=C/c2ccc(-c3ccc(Cl)cc3Cl)o2)c(Cl)c1)N/N=C/c1ccc(-c2ccc(Cl)cc2Cl)o1 and write its reported TGI.
> 100 µM

Using the record for CCN(C)c1nc(N(C)CC)c2nc(N(C)CC)nc(N(C)CC)c2n1 , state its measured TGI.
> 100 µM

Give recorded TGI. CN1CSC(=S)N(c2cccc(C(F)(F)F)c2)C1
37.5 µM

Please indicate TGI recorded for CC1=C(C(=O)Nc2ccccc2)C(c2ccc(N(C)C)cc2)C(C(=O)Nc2ccccc2)=C(C)N1
> 100 µM

Return TGI (reported value) for this molecule: COc1cc(C)c(CC/C(C)=C/Cc2cc(O)ccc2O)c(C)c1C
> 25 µM

Give TGI for N#C/C(=C\c1cc(OCc2ccccc2)c(OCc2ccccc2)cn1)C(N)=O
> 100 µM

Identify measured TGI corresponding to COc1ccc2c(c1)c1c(n2CCN2CCCCC2)-c2cccc(OC)c2CC1
> 100 µM

Return value of TGI for input O=c1c(F)cn2c(=O)n1CCCCCCCn1c(=O)c(F)cn(c1=O)CCCCCCC2 , no commentary.
98.4 µM

Recall and state the measured TGI for CCc1ccccc1NC(=O)c1cccc([N+](=O)[O-])c1O .
> 100 µM
